Attribute: apparent Kd
Tested on: MS2 coat protein
Test: apparent Kd, MS2 coat protein; higher = weaker binding; RNA-MaP array; theophylline 2 mM where present
Settings: ligand present: theophylline; designed as: ON switch for theophylline
Express the result in nM but write the number alone.

Consider the reported apparent Kd for these sequences:
# Polymer Sequence, Readout Kind, Unit Text, Assay Result
records = [
    ("AAUAACAUGAGGAUCACCCAUGUAAAAGAUACCAGGGUGAUGAUCCUCCCUUGGCAGCUUACAGCUGAUCAAUAAGAUCGGCUGA", "apparent Kd", "nM", 257),
    ("GGUAGCAGGACUGAUACCAGUCCAGCGAAUCAUACGACGCAACAUGAGGAUCACCCAUGUGACCCUUGGCAGCAGACUGCUACCG", "apparent Kd", "nM", 14.5),
    ("AGUGUUAUAACUGAUACCAGACUCUCAUGUUUACAUGAGGAUCACCCAUGUUAUUUCUUUGUCCCUUGGCAGCAGAAUUAACACA", "apparent Kd", "nM", 38.2),
    ("AGAACAAAACUAAAUAAACAACUGGGUGAUACCAGCACAUGUGCGUGCCCUUGGCAGCAUCCGGCCACAUGAGGAUCACCCAUGU", "apparent Kd", "nM", 155),
]

Now take the following sequence into account.
Param readout= apparent Kd; system= MS2 coat protein; entry= `UUUGAUAGGACAGAUACCAGCGUGUUGUUGAACAUGAGGAUCACCCAUGUAGUGAUCGAGCGCCCUUGGCAGCUGGUUUGUUAGG` ; returns value.
306

All values here come from the EternaBench riboswitch data.
